- Organism: Rattus norvegicus
- protocol-text: DrugMatrix - Regimen: Daily Repeat
- Type: toxicity, organism-based, Sprague-Dawley
- Set-up: regimen Daily Repeat, gender Male, age 6-8 weeks
- condition-set: in vivo, iv, 0 mg/kg, 72 h, tissue Plasma, dose level Control, time 3 day, vehicle 100 % SALINE
endpoint: URIC ACID (mg/dL)
Express the result in mg/dL but write the number alone.

compound	units-symbol	URIC ACID
CCc1c2c(nc3ccc(OC(=O)N4CCC(N5CCCCC5)CC4)cc13)-c1cc3c(c(=O)n1C2)COC(=O)[C@]3(O)CC [IRINOTECAN]	mg/dL	1.53

Query string: Recorded URIC ACID of CCC1=C[C@@H]2CN(C1)Cc1c([nH]c3ccccc13)[C@@](C(=O)OC)(c1cc3c(cc1OC)N(C)[C@H]1[C@@](O)(C(=O)OC)[C@H](OC(C)=O)[C@]4(CC)C=CCN5CC[C@]31[C@@H]54)C2 [VINORELBINE] , please.
Result string: 1.63

Query string: Give the measured URIC ACID of CC[C@]1(O)C[C@@H]2CN(CCc3c([nH]c4ccccc34)[C@@](C(=O)OC)(c3cc4c(cc3OC)N(C)[C@H]3[C@@](O)(C(=O)OC)[C@H](OC(C)=O)[C@]5(CC)C=CCN6CC[C@]43[C@@H]65)C2)C1 [VINBLASTINE] .
Result string: 1.55

Query string: I am curious: what URIC ACID value has been reported for COc1cccc2c1C(=O)c1c(O)c3c(c(O)c1C2=O)C[C@@](O)(C(=O)CO)C[C@@H]3O[C@H]1C[C@H](N)[C@H](O)[C@H](C)O1 [DOXORUBICIN] ?
Result string: 0.52

Query string: I would be grateful if you could share the reported URIC ACID for "CC(=O)N[C@@H]1[C@H](Oc2c3cc4cc2Oc2ccc(cc2Cl)[C@@H](O[C@@H]2O[C@@H](CO)[C@@H](O)[C@H](O)[C@@H]2NC(C)=O)[C@@H]2NC(=O)[C@H](NC(=O)[C@@H]4NC(=O)[C@H]4NC(=O)[C@@H](Cc5ccc(c(Cl)c5)O3)NC(=O)[C@H](N)c3ccc(O)c(c3)Oc3cc(O)cc4c3)c3ccc(O)c(c3)-c3c(O[C@H]4O[C@H](CO)[C@@H](O)[C@@H](O)[C@@H]4O)cc(O)cc3[C@@H](C(=O)O)NC2=O)O[C@@H](CO)[C@@H](O)[C@@H]1O" .
Result string: 1.6

Query string: Bench note: what URIC ACID did COc1cccc2c1C(=O)c1c(O)c3c(c(O)c1C2=O)C[C@@](O)(C(=O)CO)C[C@@H]3O[C@H]1C[C@H](N)[C@@H](O)[C@H](C)O1 [EPIRUBICIN] show?
Result string: 1.53

###

- Species on record: Rattus norvegicus
- protocol-text: DrugMatrix - Regimen: Daily Repeat
- Assay type: toxicity, organism-based, Sprague-Dawley
- Parameters: regimen Daily Repeat, gender Male, age 6-8 weeks
- condition-set: in vivo, po, 0 mg/kg, 120 h, tissue Blood, route oral GAVAGE, dose level Control, time 5 day, vehicle .5 % CMC
endpoint: HEMOGLOBIN (G/DL)
Reply with just the number (in G/DL).

molecule	units-symbol	HEMOGLOBIN
C[C@](O)(CS(=O)(=O)c1ccc(F)cc1)C(=O)Nc1ccc(C#N)c(C(F)(F)F)c1 [(R)-BICALUTAMIDE]	G/DL	13.22
CO[C@H]1/C=C/O[C@@]2(C)Oc3c(C)c(O)c4c(c3C2=O)C2=NC3(CCN(CC(C)C)CC3)NC2=C(NC(=O)/C(C)=C\C=C\[C@H](C)[C@H](O)[C@@H](C)[C@@H](O)[C@@H](C)[C@H](OC(C)=O)[C@@H]1C)C4=O [RIFABUTIN]	G/DL	14.27
Cc1onc(-c2ccccc2)c1-c1ccc(S(N)(=O)=O)cc1 [VALDECOXIB]	G/DL	14.1
CC[C@@H](CO)NCCN[C@@H](CC)CO [ETHAMBUTOL]	G/DL	14.7
OC(CCN1CCCCC1)(c1ccccc1)C1CCCCC1 (stereo not drawn) [TRIHEXYPHENIDYL]	G/DL	14.08

Query string: Item CC(C)[C@H]1CC[C@H](C(=O)N[C@H](Cc2ccccc2)C(=O)O)CC1 [NATEGLINIDE] has what recorded HEMOGLOBIN?
Result string: 13.98

Query string: # lookup: HEMOGLOBIN of CN1CCC(=C2c3ccccc3C=Cc3ccccc32)CC1 [CYPROHEPTADINE]
Result string: 14.48

Query string: Quick one: HEMOGLOBIN for CNC(=C[N+](=O)[O-])NCCSCc1ccc(CN(C)C)o1 [RANITIDINE] ?
Result string: 14.27
